Value source: ChEMBL document CHEMBL5137093

Test: Tmax in Sprague-Dawley rat at 30 mg/kg,po measured upto 24 hrs by UPLC-MS/MS analysis
Assay type: ADME, organism-based
Conditions: in vivo
Measurement type: Tmax (h)
Unit h implied. Number only.

Data request: Consider the compound COC(=O)N[C@H](C(=O)N[C@@H](Cc1ccccc1)[C@@H](O)CN(Cc1ccc(-c2ccccn2)cc1)NC(=O)[C@@H](NC(=O)OC)C(C)(C)C)C(C)(C)C and give its measured Tmax.
Data returned: 3

---

Assay: Clearance in Sprague-Dawley rat at 1 mg/kg,iv measured upto 24 hrs by UPLC-MS/MS analysis
Assay type: ADME, organism-based
Settings: in vivo
Measurement type: clearance
Please answer using the number first and the unit second.

Data request: Consider the compound COC(=O)N[C@H](C(=O)N[C@@H](Cc1ccccc1)[C@@H](O)CN(Cc1ccc(-c2ccccn2)cc1)NC(=O)[C@@H](NC(=O)OC)C(C)(C)C)C(C)(C)C and give its measured clearance.
Data returned: 38.7 mL/min/kg
